Kindly supply the reported IC50 values for the records listed here.
assay_system: SARS-CoV-2 main protease (M^pro) (Severe acute respiratory syndrome coronavirus 2, UniProt P0DTD1)
assay_remarks: Rapid-Fire MS Biochemical Assay measuring Mpro activity (5 nM Mpro)
conditions: Table 1B, Mpro inhibition, 5 μM substrate peptide, 120 min, read-out: Rapid-Fire Assay IC50

{"compound": "N#C[C@H]1CN(c2cccc(C(F)(F)F)c2)C(=O)N1c1cncc2ccccc12 (single isomer, unassigned) [Compound 106a]", "value_type": "IC50", "experimental_result": "< 20 nM"}

// for each compound below, give its IC50
1. N#C[C@H]1CN(c2cnc(C(F)(F)F)nc2)C(=O)N1c1cncc2ccccc12 (single isomer, unassigned) [Compound 93a]
2. N#CC1CN(C2CN(CC(F)(F)F)C2)C(=O)N1c1cncc2ccccc12 (racemic)
3. N#CC1CN(c2cccc(Cl)c2)C(=O)N1c1cncc2ccc(C(=O)O)cc12 (racemic)
4. N#C[C@H]1CN(c2nc(Cl)c[nH]2)C(=O)N1c1cncc2ccccc12 (single isomer, unassigned) [Compound 119a]
5. COc1ccc(C(F)(F)F)cc1N1C[C@@H](C#N)N(c2cncc3ccc(S(C)(=O)=O)cc23)C1=O (single isomer, unassigned) [Compound 38b]

Result:
1. < 20 nM
2. < 20 nM
3. < 20 nM
4. 20 to 200 nM
5. > 1000 nM

// for each compound below, give its IC50
1. N#C[C@@H]1CN(C2CCC(F)(F)CC2)C(=O)N1c1cncc2ccccc12 (single isomer, unassigned) [Compound 138b]
2. Cc1ccc(C#N)c(N2CC(C#N)N(c3cncc4ccccc34)C2=O)c1 (racemic)
3. N#C[C@H]1CN(c2nccc(C(F)(F)F)n2)C(=O)N1c1cncc2ccccc12 (single isomer, unassigned) [Compound 49a]
4. CC(C)[C@H]1C[C@@H](N2C[C@H](C#N)N(c3cncc4ccccc34)C2=O)C1 [Compound 123a]
5. N#Cc1cnc(C(F)(F)F)cc1N1C[C@H](C#N)N(c2cncc3ccccc23)C1=O (single isomer, unassigned) [Compound 117a]
6. N#C[C@@H]1CN(c2ccc(C(F)(F)F)cc2)C(=O)N1c1cncc2ccccc12 (single isomer, unassigned) [Compound 99b]

Result:
1: > 1000 nM; 2: < 20 nM; 3: 20 to 200 nM; 4: < 20 nM; 5: < 20 nM; 6: 200 to 1000 nM

// for each compound below, give its IC50
1. Cc1ccc(F)cc1N1C[C@@H](C#N)N(c2cncc3ccccc23)C1=O (single isomer, unassigned) [Compound 21b]
2. COc1cc(N2C[C@H](C#N)N(c3cncc4ccccc34)C2=O)ccn1 (single isomer, unassigned) [Compound 23a]

Result:
> 1000 nM
< 20 nM
